Task for the reader: assign each of the following compounds its reported IC50.

Task item: For Serine/threonine-protein kinase N2 (Homo sapiens), provide IC50 of `COc1ccc(C(=O)NCc2cccc(C(=O)Nc3ccc(CN(C)C)cc3)c2)cc1Cl` please.
Reply: > 5 µM

Task item: For Serine/threonine-protein kinase N2 (Homo sapiens), provide IC50 of N#Cc1ccc(NC(=O)NCc2cccc(C(=O)NCCC3CCCNC3)c2)cc1 (stereo not given) please.
Reply: 1.7 µM

Task item: For Serine/threonine-protein kinase N2 (Homo sapiens), provide IC50 of `COc1ccc(C(=O)NCc2cccc(C(=O)Nc3ccc(CN(C)C)cc3)c2)cc1OC` please.
Reply: > 5 µM

Task item: For Serine/threonine-protein kinase N2 (Homo sapiens), provide IC50 of N#Cc1cccc(NC(=O)NCc2cccc(C(=O)NCCC3CCCNC3)c2)c1 (stereo not given) please.
Reply: > 5 µM

Task item: For Serine/threonine-protein kinase N2 (Homo sapiens), provide IC50 of `COc1ccc(C(=O)NCc2cccc(C(=O)NCCC3CCNCC3)c2)cc1OC` please.
Reply: > 5 µM

----------
- measurement description: Permeability from basolateral to apical side in human Caco-2 cells
- Format: ADME, cell-based
- measurement setup: read-out: permeability
quantity measured: Papp B→A
Record the result as a number with its unit.

Task item: Consider the molecule COc1ccc(C(=O)NCc2cccc(C(=O)NCCC3CCCNC3)c2)cc1OC (stereo not given) and give its measured Papp B→A.
Reply: 8 nm/s

Task item: Consider the molecule `COc1ccc(C(=O)NCc2cccc(C(=O)NCCc3ccncc3)c2)cc1OC` and give its measured Papp B→A.
Reply: 291 nm/s

Task item: Consider the molecule `COc1ccc(C(=O)NCc2cccc(C(=O)Nc3ccc4c(c3)CN(C)CC4)c2)cc1OC` and give its measured Papp B→A.
Reply: 271 nm/s

Task item: Consider the molecule `N#Cc1ccc(NC(=O)NCc2cccc(C(=O)Nc3ccc4c(c3)CNCC4)c2)cc1` and give its measured Papp B→A.
Reply: 88 nm/s

Task item: Consider the molecule `COc1ccc(C(=O)NCc2cccc(C(=O)Nc3ccc(CN(C)C)cc3)c2)cc1Cl` and give its measured Papp B→A.
Reply: 453 nm/s

Task item: Consider the molecule `COc1ccc(C(=O)NCc2cccc(C(=O)Nc3ccc(CN(C)C)cc3)c2)cc1OC` and give its measured Papp B→A.
Reply: 146 nm/s

Task item: Consider the molecule `COc1ccc(C(=O)NCc2cccc(C(=O)Nc3ccc4c(c3)CNCC4)c2)cc1OC` and give its measured Papp B→A.
Reply: 54 nm/s

Task item: Consider the molecule `COc1ccc(C(=O)NCc2cccc(C(=O)Nc3ccc(CN(C)C)cc3)c2)cc1C` and give its measured Papp B→A.
Reply: 308 nm/s

Task item: Consider the molecule `COc1ccc(C(=O)NCc2cccc(C(=O)Nc3ccc(CO)cc3)c2)cc1OC` and give its measured Papp B→A.
Reply: 161 nm/s

Task item: Consider the molecule `COc1ccc(C(=O)NCc2cccc(C(=O)NCCC3CCNCC3)c2)cc1OC` and give its measured Papp B→A.
Reply: 6 nm/s

----------
- system under test: Cytochrome P450 2C9 (Homo sapiens, UniProt P11712)
- Sequence (P11712 whole entry): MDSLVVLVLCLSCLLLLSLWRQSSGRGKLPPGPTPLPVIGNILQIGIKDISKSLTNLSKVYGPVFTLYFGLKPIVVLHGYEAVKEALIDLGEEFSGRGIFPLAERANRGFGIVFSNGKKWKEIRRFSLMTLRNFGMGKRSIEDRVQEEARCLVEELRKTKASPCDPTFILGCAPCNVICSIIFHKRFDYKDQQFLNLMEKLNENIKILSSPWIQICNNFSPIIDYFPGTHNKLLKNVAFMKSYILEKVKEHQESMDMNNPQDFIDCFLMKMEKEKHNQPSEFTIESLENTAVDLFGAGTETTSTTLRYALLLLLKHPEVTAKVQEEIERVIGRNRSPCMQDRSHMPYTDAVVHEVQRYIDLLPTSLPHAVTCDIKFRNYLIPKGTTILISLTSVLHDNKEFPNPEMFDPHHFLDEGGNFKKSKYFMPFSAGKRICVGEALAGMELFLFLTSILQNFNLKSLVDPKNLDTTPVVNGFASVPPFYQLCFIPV
- measurement description: Inhibition of human CYP2C9 by fluorescence assay
- Format: ADME
Task for the reader: assign each of the following compounds its reported IC50.

Task item: For Cytochrome P450 2C9 (Homo sapiens, UniProt P11712), provide IC50 of `COc1ccc(C(=O)NCc2cccc(C(=O)NCCc3ccncc3)c2)cc1OC` please.
Reply: 16 µM

Task item: For Cytochrome P450 2C9 (Homo sapiens, UniProt P11712), provide IC50 of `COc1ccc(C(=O)NCc2cccc(C(=O)Nc3ccc4c(c3)CN(C)CC4)c2)cc1OC` please.
Reply: > 30 µM

Task item: For Cytochrome P450 2C9 (Homo sapiens, UniProt P11712), provide IC50 of `COc1ccc(C(=O)NCc2cccc(C(=O)Nc3ccc(CN(C)C)cc3)c2)cc1OC` please.
Reply: > 30 µM

Task item: For Cytochrome P450 2C9 (Homo sapiens, UniProt P11712), provide IC50 of `COc1ccc(C(=O)NCc2cccc(C(=O)NCCC3CCNCC3)c2)cc1OC` please.
Reply: > 30 µM

Task item: For Cytochrome P450 2C9 (Homo sapiens, UniProt P11712), provide IC50 of `N#Cc1ccc(NC(=O)NCc2cccc(C(=O)Nc3ccc4c(c3)CNCC4)c2)cc1` please.
Reply: 22 µM

Task item: For Cytochrome P450 2C9 (Homo sapiens, UniProt P11712), provide IC50 of `COc1ccc(C(=O)NCc2cccc(C(=O)Nc3ccc4c(c3)CNCC4)c2)cc1OC` please.
Reply: > 30 µM

Task item: For Cytochrome P450 2C9 (Homo sapiens, UniProt P11712), provide IC50 of COc1ccc(C(=O)NCc2cccc(C(=O)NCCC3CCCNC3)c2)cc1OC (configuration not stated) please.
Reply: > 30 µM

----------
Task for the reader: assign each of the following compounds its reported half-life.
- measurement description: Metabolic stability in human liver microsomes assessed as half life
- Type: ADME, Microsome
Record the result as a number with its unit.

Task item: Consider the compound `N#Cc1ccc(NC(=O)NCc2cccc(C(=O)Nc3ccc4c(c3)CNCC4)c2)cc1` and give its measured half-life.
Reply: 189 min

Task item: Consider the compound `COc1ccc(C(=O)NCc2cccc(C(=O)NCCc3ccncc3)c2)cc1OC` and give its measured half-life.
Reply: 10 min

Task item: Consider the compound `COc1ccc(C(=O)NCc2cccc(C(=O)Nc3ccc(CN(C)C)cc3)c2)cc1OC` and give its measured half-life.
Reply: 66 min

Task item: Consider the compound `COc1ccc(C(=O)NCc2cccc(C(=O)NCCC3CCNCC3)c2)cc1OC` and give its measured half-life.
Reply: 87 min

Task item: Consider the compound COc1ccc(C(=O)NCc2cccc(C(=O)NCCC3CCCNC3)c2)cc1OC (stereo not drawn) and give its measured half-life.
Reply: 139 min

Task item: Consider the compound `COc1ccc(C(=O)NCc2cccc(C(=O)Nc3ccc(CO)cc3)c2)cc1OC` and give its measured half-life.
Reply: 41 min

Task item: Consider the compound `COc1ccc(C(=O)NCc2cccc(C(=O)Nc3ccc4c(c3)CNCC4)c2)cc1OC` and give its measured half-life.
Reply: 146 min

Task item: Consider the compound `COc1ccc(C(=O)NCc2cccc(C(=O)Nc3ccc4c(c3)CN(C)CC4)c2)cc1OC` and give its measured half-life.
Reply: 55 min

----------
- system under test: Vascular endothelial growth factor receptor 1 (Homo sapiens, UniProt P17948)
- Sequence (P17948 whole entry): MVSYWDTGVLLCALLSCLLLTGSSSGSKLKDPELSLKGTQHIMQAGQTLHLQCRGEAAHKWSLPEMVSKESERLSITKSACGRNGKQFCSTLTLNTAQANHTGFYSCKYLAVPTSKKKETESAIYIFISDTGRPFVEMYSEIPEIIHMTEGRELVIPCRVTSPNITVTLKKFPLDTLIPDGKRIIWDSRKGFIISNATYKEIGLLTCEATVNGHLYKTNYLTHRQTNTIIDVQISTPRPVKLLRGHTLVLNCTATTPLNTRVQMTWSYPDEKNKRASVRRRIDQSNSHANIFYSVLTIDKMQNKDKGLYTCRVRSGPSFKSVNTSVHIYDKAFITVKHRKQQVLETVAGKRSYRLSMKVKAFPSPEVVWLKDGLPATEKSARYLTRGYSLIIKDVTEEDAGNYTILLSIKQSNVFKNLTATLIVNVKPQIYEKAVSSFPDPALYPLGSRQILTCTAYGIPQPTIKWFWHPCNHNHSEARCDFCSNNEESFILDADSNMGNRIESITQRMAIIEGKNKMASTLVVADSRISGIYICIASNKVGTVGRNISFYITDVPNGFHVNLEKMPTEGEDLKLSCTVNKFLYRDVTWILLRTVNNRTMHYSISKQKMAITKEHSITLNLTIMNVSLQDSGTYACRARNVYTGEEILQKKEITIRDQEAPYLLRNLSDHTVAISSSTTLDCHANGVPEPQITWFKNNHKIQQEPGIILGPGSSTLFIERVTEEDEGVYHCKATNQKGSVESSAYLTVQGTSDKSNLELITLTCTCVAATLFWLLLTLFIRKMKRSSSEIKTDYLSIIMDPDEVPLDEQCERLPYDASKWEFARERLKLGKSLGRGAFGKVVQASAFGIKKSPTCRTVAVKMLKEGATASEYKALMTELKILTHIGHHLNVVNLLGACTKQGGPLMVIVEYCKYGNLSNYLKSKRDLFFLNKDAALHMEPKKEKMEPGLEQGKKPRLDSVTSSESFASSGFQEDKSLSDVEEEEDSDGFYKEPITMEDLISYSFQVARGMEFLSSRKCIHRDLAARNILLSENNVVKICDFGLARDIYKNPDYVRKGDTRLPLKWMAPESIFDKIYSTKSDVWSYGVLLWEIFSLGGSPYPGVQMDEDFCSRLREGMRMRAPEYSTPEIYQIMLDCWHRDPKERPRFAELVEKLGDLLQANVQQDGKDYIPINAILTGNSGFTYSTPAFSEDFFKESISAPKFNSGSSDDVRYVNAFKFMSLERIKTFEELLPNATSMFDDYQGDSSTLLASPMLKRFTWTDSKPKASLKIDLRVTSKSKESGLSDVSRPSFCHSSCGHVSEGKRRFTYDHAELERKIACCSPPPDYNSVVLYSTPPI
pIC50: −log10 of the molar value.
quantity measured: pIC50

Task item: Consider the molecule `COc1ccc(C(=O)NCc2cccc(C(=O)Nc3ccc4c(c3)CNCC4)c2)cc1OC` and give its measured pIC50.
Reply: < 5.00

----------
- system under test: Cytochrome P450 3A4 (Homo sapiens, UniProt P08684)
- Sequence (P08684 whole entry): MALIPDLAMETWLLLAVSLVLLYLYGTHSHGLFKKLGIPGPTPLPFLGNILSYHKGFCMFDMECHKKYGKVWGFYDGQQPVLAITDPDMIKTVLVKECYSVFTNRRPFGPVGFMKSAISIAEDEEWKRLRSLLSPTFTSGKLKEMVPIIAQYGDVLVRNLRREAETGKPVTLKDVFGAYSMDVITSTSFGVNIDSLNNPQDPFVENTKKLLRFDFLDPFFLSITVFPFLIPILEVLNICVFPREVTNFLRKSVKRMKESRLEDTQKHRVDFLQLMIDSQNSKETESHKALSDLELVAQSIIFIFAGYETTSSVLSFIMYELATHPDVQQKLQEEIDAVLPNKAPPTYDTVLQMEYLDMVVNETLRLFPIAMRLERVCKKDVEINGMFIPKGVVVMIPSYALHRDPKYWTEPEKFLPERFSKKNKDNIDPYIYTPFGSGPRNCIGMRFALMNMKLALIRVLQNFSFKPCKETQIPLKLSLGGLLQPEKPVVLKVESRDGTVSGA
- measurement description: Inhibition of human CYP3A4 using BFC substrate by fluorescence assay
- Format: ADME
Task for the reader: assign each of the following molecules its reported pIC50.
Field pIC50 (float): negative decimal logarithm of the concentration in molar.

Task item: Consider the molecule `COc1ccc(C(=O)NCc2cccc(C(=O)Nc3ccc4c(c3)CN(C)CC4)c2)cc1OC` and give its measured pIC50.
Reply: 5.77

Task item: Consider the molecule `COc1ccc(C(=O)NCc2cccc(C(=O)Nc3ccc(CN(C)C)cc3)c2)cc1OC` and give its measured pIC50.
Reply: 5.07

Task item: Consider the molecule `COc1ccc(C(=O)NCc2cccc(C(=O)NCCc3ccncc3)c2)cc1OC` and give its measured pIC50.
Reply: 5.40

Task item: Consider the molecule `N#Cc1ccc(NC(=O)NCc2cccc(C(=O)Nc3ccc4c(c3)CNCC4)c2)cc1` and give its measured pIC50.
Reply: 5.23

----------
- measurement description: Membrane permeability by PAMPA assay
- Format: ADME
- measurement setup: read-out: permeability
quantity measured: Papp
Record the result as a number with its unit.

Task item: Consider the compound `COc1ccc(C(=O)NCc2cccc(C(=O)Nc3ccc4c(c3)CN(C)CC4)c2)cc1OC` and give its measured Papp.
Reply: 16 ×10⁻⁶ cm/s

Task item: Consider the compound `COc1ccc(C(=O)NCc2cccc(C(=O)Nc3ccc(CO)cc3)c2)cc1OC` and give its measured Papp.
Reply: 10 ×10⁻⁶ cm/s

Task item: Consider the compound `COc1ccc(C(=O)NCc2cccc(C(=O)NCCC3CCNCC3)c2)cc1OC` and give its measured Papp.
Reply: 0.6 ×10⁻⁶ cm/s

Task item: Consider the compound `COc1ccc(C(=O)NCc2cccc(C(=O)Nc3ccc(CN(C)C)cc3)c2)cc1C` and give its measured Papp.
Reply: 21 ×10⁻⁶ cm/s

Task item: Consider the compound `COc1ccc(C(=O)NCc2cccc(C(=O)Nc3ccc4c(c3)CNCC4)c2)cc1OC` and give its measured Papp.
Reply: 3.6 ×10⁻⁶ cm/s

Task item: Consider the compound `COc1ccc(C(=O)NCc2cccc(C(=O)Nc3ccc(CN(C)C)cc3)c2)cc1OC` and give its measured Papp.
Reply: 10 ×10⁻⁶ cm/s

Task item: Consider the compound `COc1ccc(C(=O)NCc2cccc(C(=O)Nc3ccc(CN(C)C)cc3)c2)cc1Cl` and give its measured Papp.
Reply: 24 ×10⁻⁶ cm/s
